- measurement_target: T1, human IL-11 (human, UniProt P20809 22-199)
- T1 sequence: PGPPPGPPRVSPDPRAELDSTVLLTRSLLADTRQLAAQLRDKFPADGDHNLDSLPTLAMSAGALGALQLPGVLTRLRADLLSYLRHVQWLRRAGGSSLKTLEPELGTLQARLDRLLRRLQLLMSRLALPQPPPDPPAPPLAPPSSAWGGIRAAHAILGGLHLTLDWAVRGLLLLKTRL
- assay_explanation: cell-based or functional assay
readout_label: RGA Efficacy (%)
// note: answer is a bare numeric in %

Record TPP-26296 (antibody, V domains shown) VH: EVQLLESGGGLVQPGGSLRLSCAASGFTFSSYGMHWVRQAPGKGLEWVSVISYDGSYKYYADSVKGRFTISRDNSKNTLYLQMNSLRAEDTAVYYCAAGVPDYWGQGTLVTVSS VL: QSVLTQPPSASGTPGQRVTISCTGSSSNIGAGYDVHWYQQLPGTAPKLLIYSNNERPSGVPDRFSGSKSGTSASLAISGLRSEDEADYYCAAWDNSLNGPVFGGGTKLTVL . Reported RGA Efficacy (%): 71

The binder listed as TPP-26302 (antibody, V domains shown) VH: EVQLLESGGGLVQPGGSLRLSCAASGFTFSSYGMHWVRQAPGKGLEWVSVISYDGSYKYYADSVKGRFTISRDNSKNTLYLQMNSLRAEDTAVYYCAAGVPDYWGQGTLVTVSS VL: QSVLTQPPSASGTPGQRVTISCTGSSSNIGAGYDVHWYQQLPGTAPKLLIYSNNERPSGVPDRFSGSKSGTSASLAISGLRSEDEADYYCSAWDDSLNGPVFGGGTKLTVL shows RGA Efficacy (%) equal to 65.8

# RGA Efficacy (%) of TPP-26314 (antibody, V domains shown) VH: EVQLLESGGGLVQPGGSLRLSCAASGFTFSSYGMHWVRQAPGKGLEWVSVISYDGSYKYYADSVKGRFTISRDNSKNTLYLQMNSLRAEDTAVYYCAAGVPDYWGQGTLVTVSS VL: QSVLTQPPSASGTPGQRVTISCTGSSSNIGAGYDVHWYQQLPGTAPKLLIYSNNERPSGVPDRFSGSKSGTSASLAISGLRSEDEADYYCAAWDWSLNGPVFGGGTKLTVL = 69.3
